Assay: self-splicing fitness, log relative to wild type (ln ratio); higher = more splicing; Tetrahymena group I intron in knt gene, E. coli kanamycin selection, DiMSum; sequences stand for … in CUCUCU…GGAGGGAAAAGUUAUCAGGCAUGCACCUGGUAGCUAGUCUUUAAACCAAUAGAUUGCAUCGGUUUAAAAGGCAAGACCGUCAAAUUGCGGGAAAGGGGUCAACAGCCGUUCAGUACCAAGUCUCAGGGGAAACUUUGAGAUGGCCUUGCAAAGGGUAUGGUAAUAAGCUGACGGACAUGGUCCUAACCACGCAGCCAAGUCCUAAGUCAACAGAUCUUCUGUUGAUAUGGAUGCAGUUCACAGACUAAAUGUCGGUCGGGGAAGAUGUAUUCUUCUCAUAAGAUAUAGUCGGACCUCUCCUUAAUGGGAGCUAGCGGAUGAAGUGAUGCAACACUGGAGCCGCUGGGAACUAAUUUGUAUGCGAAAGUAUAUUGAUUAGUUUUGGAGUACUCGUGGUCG;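 note: selection with 25 µg/mL kanamycin versus none on LB agar overnight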
Settings: 30 °C
The entries below come with measured self-splicing fitness (ln) values attached.
// print number alone

Completed entries (count: 10):
-- ask Endpoint output: self-splicing fitness (ln) of UAGUAGCAAUAUUACGCGUG . Value?
-- reply -1.03

-- ask Endpoint output: self-splicing fitness (ln) of UACGAGCAAUAUUACGCGGU . Value?
-- reply -3.15

-- ask Endpoint output: self-splicing fitness (ln) of UAACAGCAAUAUUACGACGC . Value?
-- reply -2.37

-- ask Endpoint output: self-splicing fitness (ln) of UGCCAGCAAUAUUACGCAUA . Value?
-- reply -1.67

-- ask Endpoint output: self-splicing fitness (ln) of ACGAAGCAAUAUUACGCACG . Value?
-- reply -3.26

-- ask Endpoint output: self-splicing fitness (ln) of GUGGAGCAAUAUUACGGGGG . Value?
-- reply -3.36

-- ask Endpoint output: self-splicing fitness (ln) of UCAGAGCAAUAUUACGUCGC . Value?
-- reply -3.79

-- ask Endpoint output: self-splicing fitness (ln) of ACCUAGCAAUAUUACGCUUU . Value?
-- reply -1.26

-- ask Endpoint output: self-splicing fitness (ln) of GCGUAGCAAUAUUACGUCAU . Value?
-- reply -3.22

-- ask Endpoint output: self-splicing fitness (ln) of GUACAGCAAUAUUACGUGGU . Value?
-- reply -3.43

Others:
-- ask Endpoint output: self-splicing fitness (ln) of AAUGAGCAAUAUUACGCCUA . Value?
-- reply -1.13

-- ask Endpoint output: self-splicing fitness (ln) of CCCGAGCAAUAUUACGACGU . Value?
-- reply -2.47

----------
Assay: self-splicing fitness, log relative to wild type (ln ratio); higher = more splicing; Tetrahymena group I intron in knt gene, E. coli kanamycin selection, DiMSum; sequences stand for … in CUCUCU…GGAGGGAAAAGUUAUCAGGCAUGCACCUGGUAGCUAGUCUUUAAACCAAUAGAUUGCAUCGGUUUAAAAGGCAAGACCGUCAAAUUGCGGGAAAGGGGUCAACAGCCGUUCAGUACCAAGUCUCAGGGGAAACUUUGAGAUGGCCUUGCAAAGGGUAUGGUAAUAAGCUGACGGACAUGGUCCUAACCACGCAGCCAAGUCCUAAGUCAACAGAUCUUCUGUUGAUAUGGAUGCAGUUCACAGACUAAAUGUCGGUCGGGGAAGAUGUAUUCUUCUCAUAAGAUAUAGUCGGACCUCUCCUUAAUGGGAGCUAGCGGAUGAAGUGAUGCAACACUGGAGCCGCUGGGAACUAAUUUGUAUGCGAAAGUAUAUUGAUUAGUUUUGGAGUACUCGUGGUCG
Details: 30 °C
The entries below come with measured self-splicing fitness (ln) values attached.
// print number alone

Completed entries (count: 3):
-- ask Endpoint output: self-splicing fitness (ln) of CUCAAGCAAUAUUACGAUUU . Value?
-- reply -3.68

-- ask Endpoint output: self-splicing fitness (ln) of CCCGAGCAAUAUUACGCGUA . Value?
-- reply -3.06

-- ask Endpoint output: self-splicing fitness (ln) of AUGAAGCAAUAUUACGUAUG . Value?
-- reply -1.78

Others:
-- ask Endpoint output: self-splicing fitness (ln) of AAACAGCAAUAUUACGAUAA . Value?
-- reply -1.6

-- ask Endpoint output: self-splicing fitness (ln) of AUGGAGCAAUAUUACGCACC . Value?
-- reply -2.45

-- ask Endpoint output: self-splicing fitness (ln) of UCCAAGCAAUAUUACGGCCA . Value?
-- reply -0.223

-- ask Endpoint output: self-splicing fitness (ln) of UAAAAGCAAUAUUACGAUAG . Value?
-- reply -0.934

----------
Assay: self-splicing fitness, log relative to wild type (ln ratio); higher = more splicing; Tetrahymena group I intron in knt gene, E. coli kanamycin selection, DiMSum; sequences stand for … in CUCUCU…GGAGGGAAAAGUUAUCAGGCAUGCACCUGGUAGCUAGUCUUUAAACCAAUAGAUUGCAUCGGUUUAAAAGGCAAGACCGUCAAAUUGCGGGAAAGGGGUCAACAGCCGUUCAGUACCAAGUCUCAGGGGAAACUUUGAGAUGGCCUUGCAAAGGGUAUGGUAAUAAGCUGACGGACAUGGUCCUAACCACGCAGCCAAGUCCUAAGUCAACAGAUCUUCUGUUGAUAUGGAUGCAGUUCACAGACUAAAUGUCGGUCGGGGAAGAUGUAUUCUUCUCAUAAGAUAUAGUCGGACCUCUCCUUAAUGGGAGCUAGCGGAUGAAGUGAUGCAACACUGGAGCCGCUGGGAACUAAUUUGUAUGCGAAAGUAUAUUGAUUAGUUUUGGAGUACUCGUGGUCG
Conditions: 37 °C
self-splicing fitness (ln) of -2 or higher: yes. Under -2: no.

Some entries whose results are on file:
-- ask Hi team, for ACGGAGCAAUAUUACGAUUU , is the recorded self-splicing fitness (ln) at or above -2?
-- reply yes

-- ask Hi team, for GGCUAGCAAUAUUACGAUUA , is the recorded self-splicing fitness (ln) at or above -2?
-- reply yes

-- ask Hi team, for CUCAAGCAAUAUUACGGGUC , is the recorded self-splicing fitness (ln) at or above -2?
-- reply no

Others:
-- ask Hi team, for UCGAAGCAAUAUUACGGACU , is the recorded self-splicing fitness (ln) at or above -2?
-- reply yes

-- ask Hi team, for CAUGAGCAAUAUUACGGCGC , is the recorded self-splicing fitness (ln) at or above -2?
-- reply no

-- ask Hi team, for AGCCAGCAAUAUUACGACAA , is the recorded self-splicing fitness (ln) at or above -2?
-- reply no

-- ask Hi team, for AAAAAGCAAUAUUACGUAUG , is the recorded self-splicing fitness (ln) at or above -2?
-- reply yes

-- ask Hi team, for UCAGAGCAAUAUUACGAUUC , is the recorded self-splicing fitness (ln) at or above -2?
-- reply yes

-- ask Hi team, for CGCCAGCAAUAUUACGAAGG , is the recorded self-splicing fitness (ln) at or above -2?
-- reply yes

-- ask Hi team, for UGUAAGCAAUAUUACGGGCG , is the recorded self-splicing fitness (ln) at or above -2?
-- reply yes

-- ask Hi team, for UGCUAGCAAUAUUACGGUCA , is the recorded self-splicing fitness (ln) at or above -2?
-- reply yes

-- ask Hi team, for GCGGAGCAAUAUUACGAACG , is the recorded self-splicing fitness (ln) at or above -2?
-- reply no

----------
Assay: self-splicing fitness, log relative to wild type (ln ratio); higher = more splicing; Tetrahymena group I intron in knt gene, E. coli kanamycin selection, DiMSum; sequences stand for … in CUCUCU…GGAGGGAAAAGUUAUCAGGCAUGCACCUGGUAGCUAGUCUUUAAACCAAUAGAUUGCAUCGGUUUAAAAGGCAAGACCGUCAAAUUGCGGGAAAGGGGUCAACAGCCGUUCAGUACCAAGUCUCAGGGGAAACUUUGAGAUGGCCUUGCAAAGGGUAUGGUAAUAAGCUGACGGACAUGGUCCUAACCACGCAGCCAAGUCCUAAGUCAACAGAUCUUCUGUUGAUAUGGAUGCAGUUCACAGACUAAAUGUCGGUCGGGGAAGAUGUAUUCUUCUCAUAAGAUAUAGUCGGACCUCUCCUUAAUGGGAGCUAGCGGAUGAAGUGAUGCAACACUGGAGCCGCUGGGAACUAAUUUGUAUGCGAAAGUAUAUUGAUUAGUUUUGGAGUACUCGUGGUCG
Settings: 37 °C
self-splicing fitness (ln) of -1 or higher: true (1). Under -1: false (0).

Some entries whose results are on file:
-- ask Hi team, for CGCUAGCAAUAUUACGACAA , is the recorded self-splicing fitness (ln) at or above -1?
-- reply false (0)

-- ask Hi team, for UCAGAGCAAUAUUACGGCGG , is the recorded self-splicing fitness (ln) at or above -1?
-- reply true (1)

Others:
-- ask Hi team, for CACGAGCAAUAUUACGCAGA , is the recorded self-splicing fitness (ln) at or above -1?
-- reply false (0)

-- ask Hi team, for UGCUAGCAAUAUUACGCUAG , is the recorded self-splicing fitness (ln) at or above -1?
-- reply false (0)

-- ask Hi team, for CAACAGCAAUAUUACGUUGA , is the recorded self-splicing fitness (ln) at or above -1?
-- reply false (0)
